assay.overview: Example 9 pharmacokinetics assay for the PK and PD study Part I, II and III (plasma, tumor, liver)
Format: in vivo, BALB/c nude mice
condition: mouse, tumor, po; 100 mg/kg, p.o., single dose; 1 h; ± SEM; read-out: Mean Concentration in Tumor
quantity.measured: concentration at 1 h (ng/g)
Give bare numbers, in ng/g.

## Input // returns reported concentration at 1 h for input CC(C)(C)c1nc(-c2cccc(NS(=O)(=O)c3c(F)cccc3F)c2F)c(-c2ccnc(N)n2)s1 [Dabrafenib, dabrafenib, reference compound]
## Output 4920

----------
assay.overview: Pharmacokinetics in female BALB/c nude mice bearing A375 xenografts, 1 day dosing (PK and PD study): plasma, tumor and brain concentrations, AUC
Format: in vivo
condition: mouse, brain, po, 1.5 mg/kg, 1.5 mg/kg p.o. BID × 1 day; post 2nd dose; 1 h; read-out: Mean Concentration in Brain ± SEM
quantity.measured: concentration at 1 h
I'd appreciate it if you wrote the number followed by its unit.

## Input // query concentration at 1 h value for entry CCN(C)S(=O)(=O)Nc1ccc(F)c(Oc2ccc3ncn([C@H]4COC5(CCN(C6CC7(C6)CN(c6cc8c(cc6F)c(N6CCC(=O)NC6=O)nn8C)C7)CC5)C4)c(=O)c3c2)c1C#N
## Output 25 ng/g

----------
assay.overview: Example 9 pharmacokinetics assay for the PK and PD study Part I, II and III (plasma, tumor, liver)
Format: in vivo, BALB/c nude mice
condition: mouse, tumor, po; 10 mg/kg, p.o., single dose; 1 h; ± SEM; read-out: Mean Concentration in Tumor
Give label 1 when the value for concentration at 1 h is at least 900 ng/g. Give label 0 when it is less.

Example results:
CCN(C)S(=O)(=O)Nc1ccc(F)c(Oc2ccc3ncc(OC4CC5(CCN(C6CCC(c7cc8c(cc7F)c(N7CCC(=O)NC7=O)nn8C)CC6)CC5)C4)nc3c2)c1C#N (single isomer, unassigned) [Compound 218] : label 1
CCN(C)S(=O)(=O)Nc1ccc(F)c(Oc2ccc3ncn(C4CC5(CCN(C6CC7(CCN(c8cc9c(cc8F)c(N8CCC(=O)NC8=O)nn9C)CC7)C6)CC5)C4)c(=O)c3c2)c1C#N (stereo not drawn) [Compound 198] : label 0
CCN(C)S(=O)(=O)Nc1ccc(F)c(Oc2ccc3ncn(C4CC5(C4)CN(C4CCC(c6cc7c(cc6F)c(N6CCC(=O)NC6=O)nn7C)CC4)C5)c(=O)c3c2)c1C#N (single isomer, unassigned) [Compound 204] : label 0
Cn1nc(N2CCC(=O)NC2=O)c2cc(F)c(N3CC4(CC(N5CCC6(CC5)C[C@@H](n5cnc7ccc(Oc8c(F)ccc(NS(=O)(=O)N9CC[C@@H](F)C9)c8C#N)cc7c5=O)CO6)C4)C3)cc21 [Compound 133] : label 0
CO[C@H]1CCN(S(=O)(=O)Nc2ccc(F)c(Oc3ccc4ncn([C@H]5COC6(CCN(C7CC8(C7)CN(c7cc9c(cc7F)c(N7CCC(=O)NC7=O)nn9C)C8)CC6)C5)c(=O)c4c3)c2C#N)C1 [Compound 157] : label 1

## Input Tell me whether concentration at 1 h is at least 900 ng/g here: CO[C@@H]1CCN(S(=O)(=O)Nc2ccc(F)c(Oc3ccc4ncn([C@H]5COC6(CCN(C7CC8(C7)CN(c7cc9c(cc7F)c(N7CCC(=O)NC7=O)nn9C)C8)CC6)C5)c(=O)c4c3)c2C#N)C1 [Compound 144]
## Output label 1

----------
assay.overview: Pharmacokinetics in female BALB/c nude mice bearing A375 xenografts, 1 day dosing (PK and PD study): plasma, tumor and brain concentrations, AUC
Format: in vivo
condition: mouse, plasma, po, 1.5 mg/kg, Compound 141; 1.5 mg/kg p.o. BID × 1 day; post 1st dose; 12 h; read-out: Mean Concentration in Plasma ± SEM
quantity.measured: concentration at 12 h (µg/mL)
One number for each entry, in µg/mL.

## Input // returns reported concentration at 12 h for input CCN(C)S(=O)(=O)Nc1ccc(F)c(Oc2ccc3ncn(C4CC5(CCN(C6CC7(C6)CN(c6cc8c(cc6F)c(N6CCC(=O)NC6=O)nn8C)C7)CC5)C4)c(=O)c3c2)c1C#N (stereo not shown)
## Output 0.0434

----------
assay.overview: Pharmacokinetics in female BALB/c nude mice bearing A375 xenografts, 1 day dosing (PK and PD study): plasma, tumor and brain concentrations, AUC
Assay type: in vivo
condition: mouse, plasma, po, 0.75 mg/kg, 0.75 mg/kg p.o. BID × 1 day; post 1st dose; 12 h; read-out: Mean Concentration in Plasma ± SEM
quantity.measured: concentration at 12 h (ng/mL)
One number for each entry, in ng/mL.

## Input Quick check: concentration at 12 h of CCN(C)S(=O)(=O)Nc1ccc(F)c(Oc2ccc3ncn(C4CC5(CCN(C6CC7(C6)CN(c6cc8c(cc6F)c(N6CCC(=O)NC6=O)nn8C)C7)CC5)C4)c(=O)c3c2)c1C#N (stereo not shown) [Compound 141] ?
## Output 26.5

----------
assay.overview: Pharmacokinetics in female BALB/c nude mice bearing A375 xenografts, 1 day dosing (PK and PD study): plasma, tumor and brain concentrations, AUC
Type: in vivo
condition: mouse, plasma, po, 6 mg/kg, 6 mg/kg p.o. QD × 1 day; 24 h; read-out: Mean Concentration in Plasma ± SEM
quantity.measured: concentration at 24 h (ng/mL)
Give bare numbers, in ng/mL.

## Input Please look up its concentration at 24 h: CCN(C)S(=O)(=O)Nc1ccc(F)c(Oc2ccc3ncn([C@H]4COC5(CCN(C6CC7(C6)CN(c6cc8c(cc6F)c(N6CCC(=O)NC6=O)nn8C)C7)CC5)C4)c(=O)c3c2)c1C#N
## Output 185

----------
Provide the reported DC50 of each item.
measured.target: BRAF V600E (Homo sapiens, UniProt P15056+Q96SW2, V600E)
Construct: knock-in of the HiBiT tag to the endogenous BRAF V600E locus; host or cells: A375.10 (A375 clonal line, CRISPR HiBiT knock-in at the endogenous BRAF V600E locus)
Sequence (P15056 whole entry V600E): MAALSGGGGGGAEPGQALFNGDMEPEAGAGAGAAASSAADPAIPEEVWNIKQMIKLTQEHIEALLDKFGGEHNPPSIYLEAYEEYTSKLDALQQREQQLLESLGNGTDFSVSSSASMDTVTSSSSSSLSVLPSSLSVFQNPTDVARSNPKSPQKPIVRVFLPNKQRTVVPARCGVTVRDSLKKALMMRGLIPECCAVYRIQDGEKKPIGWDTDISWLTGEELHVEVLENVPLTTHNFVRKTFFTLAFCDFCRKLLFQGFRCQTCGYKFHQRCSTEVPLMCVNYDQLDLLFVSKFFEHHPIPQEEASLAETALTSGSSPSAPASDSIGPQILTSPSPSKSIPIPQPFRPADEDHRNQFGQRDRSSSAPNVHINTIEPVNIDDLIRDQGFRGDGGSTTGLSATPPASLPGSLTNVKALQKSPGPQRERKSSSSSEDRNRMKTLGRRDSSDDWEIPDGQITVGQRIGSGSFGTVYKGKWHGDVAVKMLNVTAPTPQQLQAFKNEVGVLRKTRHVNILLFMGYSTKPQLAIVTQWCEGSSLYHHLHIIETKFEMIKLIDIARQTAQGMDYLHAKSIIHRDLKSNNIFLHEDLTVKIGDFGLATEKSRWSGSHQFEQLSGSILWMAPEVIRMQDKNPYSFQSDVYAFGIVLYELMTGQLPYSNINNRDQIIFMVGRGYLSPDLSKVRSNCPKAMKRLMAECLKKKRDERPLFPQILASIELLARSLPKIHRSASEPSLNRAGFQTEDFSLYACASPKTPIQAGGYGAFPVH
Sequence (Q96SW2 whole entry): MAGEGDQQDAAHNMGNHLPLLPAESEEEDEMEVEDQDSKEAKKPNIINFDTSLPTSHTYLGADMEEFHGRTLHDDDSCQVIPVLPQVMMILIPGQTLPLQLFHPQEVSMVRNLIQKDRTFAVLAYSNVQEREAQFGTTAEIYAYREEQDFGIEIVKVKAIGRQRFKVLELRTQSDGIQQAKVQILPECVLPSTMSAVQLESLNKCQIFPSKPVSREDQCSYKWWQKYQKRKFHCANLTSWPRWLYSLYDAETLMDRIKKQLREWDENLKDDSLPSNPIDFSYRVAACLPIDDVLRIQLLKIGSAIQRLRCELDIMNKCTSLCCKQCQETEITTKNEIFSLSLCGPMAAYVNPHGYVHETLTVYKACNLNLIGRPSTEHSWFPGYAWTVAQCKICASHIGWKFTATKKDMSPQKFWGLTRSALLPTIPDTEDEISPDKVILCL
Sequence (Q16531 whole entry partner): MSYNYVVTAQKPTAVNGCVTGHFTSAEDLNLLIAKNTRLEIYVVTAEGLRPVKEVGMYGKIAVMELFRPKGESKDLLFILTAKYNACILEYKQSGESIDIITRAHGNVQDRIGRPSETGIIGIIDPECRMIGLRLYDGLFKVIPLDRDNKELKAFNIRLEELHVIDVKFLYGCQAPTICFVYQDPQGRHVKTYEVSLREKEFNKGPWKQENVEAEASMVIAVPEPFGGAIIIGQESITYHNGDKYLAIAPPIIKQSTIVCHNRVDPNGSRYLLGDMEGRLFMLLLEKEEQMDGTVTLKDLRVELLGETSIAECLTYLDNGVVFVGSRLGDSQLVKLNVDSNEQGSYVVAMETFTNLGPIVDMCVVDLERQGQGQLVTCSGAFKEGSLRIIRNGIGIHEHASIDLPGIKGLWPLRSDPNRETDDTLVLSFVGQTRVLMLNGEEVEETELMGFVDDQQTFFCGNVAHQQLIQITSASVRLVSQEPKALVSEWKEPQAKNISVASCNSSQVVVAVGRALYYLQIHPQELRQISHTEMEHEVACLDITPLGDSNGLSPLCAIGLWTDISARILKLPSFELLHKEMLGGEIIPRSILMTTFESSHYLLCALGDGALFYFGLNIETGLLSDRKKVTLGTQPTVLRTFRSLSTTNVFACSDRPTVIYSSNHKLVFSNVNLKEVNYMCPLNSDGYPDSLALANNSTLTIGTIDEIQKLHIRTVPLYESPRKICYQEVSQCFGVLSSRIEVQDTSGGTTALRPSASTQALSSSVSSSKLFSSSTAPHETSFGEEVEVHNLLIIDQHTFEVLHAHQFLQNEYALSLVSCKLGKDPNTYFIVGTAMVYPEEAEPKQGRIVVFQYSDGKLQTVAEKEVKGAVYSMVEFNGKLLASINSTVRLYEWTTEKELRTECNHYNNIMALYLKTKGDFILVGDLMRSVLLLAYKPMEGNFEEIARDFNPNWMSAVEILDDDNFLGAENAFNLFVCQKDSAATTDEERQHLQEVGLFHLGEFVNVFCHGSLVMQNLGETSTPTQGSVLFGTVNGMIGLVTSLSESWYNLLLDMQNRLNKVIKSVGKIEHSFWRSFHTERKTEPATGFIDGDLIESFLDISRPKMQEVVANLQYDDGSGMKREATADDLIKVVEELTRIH
assay.overview: BRAF V600E HiBiT Degradation Assay
Type: cell-based
condition: A375.10 cells, BRAF V600E, 6 hours; read-out: HiBiT-Degradation A375.10 BRAF 6 hours DC50

List reported DC50 for each of these compounds:
1. CCN(C)S(=O)(=O)Nc1ccc(F)c(Oc2ccc3ncc([C@@H]4COC5(CCN(C6CCC(c7cc8c(cc7F)c(N7CCC(=O)NC7=O)nn8C)CC6)CC5)C4)nc3c2)c1C#N (single isomer, unassigned)
2. CCN(C)S(=O)(=O)Nc1ccc(F)c(Oc2ccc3ncn([C@H]4COC5(CCN(C6CCC(c7cc8c(cc7F)c(N7CCC(=O)NC7=O)nn8C)CC6O)CC5)C4)c(=O)c3c2)c1C#N (single isomer, unassigned) [Compound 45]
3. CCN(C)S(=O)(=O)Nc1ccc(F)c(Oc2ccc3ncn(C4CC5(CCN(C6CCC(c7ccc(NC8CCC(=O)NC8=O)cc7F)CC6)CC5)C4)c(=O)c3c2)c1C#N (single isomer, unassigned) [Compound 6]
4. CN(CCO)S(=O)(=O)Nc1ccc(F)c(Oc2ccc3ncn(C4CC5(CCN(C6CCC(c7ccc(NC8CCC(=O)NC8=O)cc7F)CC6)CC5)C4)c(=O)c3c2)c1C#N (single isomer, unassigned)

## Output
1: < 1000 nM; 2: < 1000 nM; 3: < 1000 nM; 4: < 1000 nM

----------
assay.overview: Pharmacokinetics after 21 days dosing in the efficacy study (plasma, tumor and brain concentrations; plasma AUC at steady state), Example 14
Assay type: in vivo, female BALB/c nude mice
condition: mouse, plasma, po; 2 mg/kg p.o. TID x 21 days; 0.25 h; mean ± SEM
quantity.measured: concentration at 0.25 h

## Input Quick one: concentration at 0.25 h for CCN(C)S(=O)(=O)Nc1ccc(F)c(Oc2ccc3ncn([C@H]4COC5(CCN(C6CC7(C6)CN(c6cc8c(cc6F)c(N6CCC(=O)NC6=O)nn8C)C7)CC5)C4)c(=O)c3c2)c1C#N ?
## Output 2630 ng/mL

----------
measured.target: BRAF V600E (Homo sapiens, UniProt P15056+Q96SW2, V600E)
Construct: knock-in of the HiBiT tag to the endogenous BRAF V600E locus; host or cells: A375.10 (A375 clonal line, CRISPR HiBiT knock-in at the endogenous BRAF V600E locus)
assay.overview: BRAF V600E HiBiT Degradation Assay
Assay type: cell-based
condition: A375.10 cells, BRAF V600E, 6 hours; residual protein remaining; read-out: HiBiT-Degradation A375.10 BRAF 6 hours Emax
Provide the reported Emax of each item.

CCN(C)S(=O)(=O)Nc1ccc(F)c(Nc2ccc3ncn([C@@H]4COC5(CCN(C6CCC(c7cc8c(cc7F)c(N7CCC(=O)NC7=O)nn8C)CC6)CC5)C4)c(=O)c3c2F)c1C#N (single isomer, unassigned) : < 50%

## Input Need Emax, item CN(CCO)S(=O)(=O)Nc1ccc(F)c(Oc2ccc3ncn(C4CC5(CCN(C6CCC(c7cc8c(cc7F)c(N7CCC(=O)NC7=O)nn8C)CC6)CC5)C4)c(=O)c3c2)c1C#N (single isomer, unassigned)
## Output < 50%
